Biological target: ABCD2 WT (Homo sapiens)
Test: D2 correction dose-response assay: ABCD2 WT HiBit protein expression
Settings: HEK-293/ABCD2 WT cells, 24 hours treatment, HiBit luminescence; class combines EC50 and Mean MaxAct (fold); read-out: ABCD2 WT EC50, Emax
pEC50: −log10 of the molar value.
Entries annotated with measured pEC50

Study these solved cases before continuing.
INSERT INTO results (compound, experimental_result) VALUES
  ('Cc1nc(Oc2nc(-c3cncc(C#N)c3)ccc2NS(C)(=O)=O)c(C2CC2)s1', '> 6.00'),
  ('Cc1cc(Oc2nc(-c3cncc(C#N)c3)ccc2NS(C)(=O)=O)nn1C', '> 4.60'),
  ('Cc1cc(C)c(Oc2nc(-c3cncc(C#N)c3)cnc2NS(C)(=O)=O)c(C)c1', '> 6.00'),
  ('Cc1cc(C2CC2)nc(C)c1Oc1nc(-c2cncc(C#N)c2)ccc1NS(=O)(=O)C1COC1', '> 6.00'),
  ('Cc1cc(C(F)(F)F)nc(C2CC2)c1Oc1nc(-c2cncc(C#N)c2)ccc1S(=O)(=O)NC1COC1', '5.00 to 6.00');

## Task Can you share its pEC50? I mean this compound: Cc1cc(C)c(Oc2nc(-c3cncc(C#N)c3)ccc2NS(=O)(=O)c2cccnc2)c(C2CC2)n1
## Result > 6.00

## Task And the next one, Cc1cc(C)c(Oc2nc(-n3cc(C#N)cn3)ccc2NS(C)(=O)=O)c(C)c1 ?
## Result 5.00 to 6.00

* * *

Target: ABCD2 WT (Homo sapiens, UniProt Q9UBJ2)
Sequence (Q9UBJ2 1-740): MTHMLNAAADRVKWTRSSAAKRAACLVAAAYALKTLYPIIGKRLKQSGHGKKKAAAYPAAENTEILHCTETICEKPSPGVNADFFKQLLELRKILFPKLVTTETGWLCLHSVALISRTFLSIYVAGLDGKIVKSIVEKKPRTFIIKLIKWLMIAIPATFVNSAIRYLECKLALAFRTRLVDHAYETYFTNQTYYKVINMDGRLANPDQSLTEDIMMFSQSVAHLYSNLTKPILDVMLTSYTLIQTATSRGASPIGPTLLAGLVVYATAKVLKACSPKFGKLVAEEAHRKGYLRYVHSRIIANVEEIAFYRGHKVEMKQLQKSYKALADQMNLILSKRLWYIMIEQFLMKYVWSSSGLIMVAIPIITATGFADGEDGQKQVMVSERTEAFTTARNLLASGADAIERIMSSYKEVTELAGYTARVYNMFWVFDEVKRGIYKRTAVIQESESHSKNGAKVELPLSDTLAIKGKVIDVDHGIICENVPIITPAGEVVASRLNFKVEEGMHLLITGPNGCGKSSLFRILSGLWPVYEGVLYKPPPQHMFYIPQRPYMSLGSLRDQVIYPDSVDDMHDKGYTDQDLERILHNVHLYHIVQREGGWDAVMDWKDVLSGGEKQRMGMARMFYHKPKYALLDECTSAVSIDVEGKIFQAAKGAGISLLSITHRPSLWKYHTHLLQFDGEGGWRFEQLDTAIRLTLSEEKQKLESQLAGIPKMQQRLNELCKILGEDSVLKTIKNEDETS
Test: D2 correction dose-response assay: ABCD2 WT HiBit protein expression
Conditions: HEK-293/ABCD2 WT cells, 24 hours treatment, HiBit luminescence; class combines EC50 and Mean MaxAct (fold); read-out: ABCD2 WT EC50, Emax
assay metric: EC50

In the examples that follow, each entry is paired with its recorded EC50.
INSERT INTO results (chemical_smiles, target_or_system, experimental_result) VALUES
  ('Cc1cc(C)c(Oc2nc(-c3cncc(Cl)c3)ccc2N2CCCCS2(=O)=O)c(C)c1', 'ABCD2 WT (Homo sapiens, UniProt Q9UBJ2)', '10 to 25 µM'),
  ('Cc1cc(C)c(Oc2nc(-c3cncc(Cl)c3)ccc2S(=O)(=O)NCc2ccccn2)c(C2CC2)c1', 'ABCD2 WT (Homo sapiens, UniProt Q9UBJ2)', '1 to 10 µM');

## Task Dear colleague, I am looking for the recorded EC50 of the following compound: CNS(=O)(=O)c1cnc(-c2cncc(Cl)c2)cc1Oc1c(C)cc(C)cc1C
## Result 10 to 25 µM

## Task Next compound up: Cc1cc(C)c(Oc2nc(-c3cncc(C#N)c3)ncc2NS(C)(=O)=O)c(C)n1
## Result < 1 µM

## Task Next entry: Cc1cc(C)c(Oc2nc(-c3cncc(Cl)c3)ccc2NS(C)(=O)=O)c(C2CC2)c1
## Result < 1 µM

## Task Next compound: Cc1cc(C)c(Oc2nc(-c3cncc(Cl)c3)ccc2S(=O)(=O)N2CCCC2)c(C)c1
## Result 1 to 10 µM

## Task Now give it for Cc1cc(C)c(Oc2nc(N3CCN(C(=O)C4COC4)CC3)ccc2NS(C)(=O)=O)c(C)c1 too.
## Result 10 to 25 µM

## Task Now give it for CC(=O)N1CCN(c2ccc(NS(C)(=O)=O)c(Oc3c(C)cc(C)cc3C)n2)CC1 too.
## Result 1 to 10 µM

* * *

pEC50 by entry:
Target: ABCA4 P1380L (Homo sapiens, UniProt P78363, P1380L)
Construct: expressed in transfected cells
Sequence (P78363 whole entry P1380L): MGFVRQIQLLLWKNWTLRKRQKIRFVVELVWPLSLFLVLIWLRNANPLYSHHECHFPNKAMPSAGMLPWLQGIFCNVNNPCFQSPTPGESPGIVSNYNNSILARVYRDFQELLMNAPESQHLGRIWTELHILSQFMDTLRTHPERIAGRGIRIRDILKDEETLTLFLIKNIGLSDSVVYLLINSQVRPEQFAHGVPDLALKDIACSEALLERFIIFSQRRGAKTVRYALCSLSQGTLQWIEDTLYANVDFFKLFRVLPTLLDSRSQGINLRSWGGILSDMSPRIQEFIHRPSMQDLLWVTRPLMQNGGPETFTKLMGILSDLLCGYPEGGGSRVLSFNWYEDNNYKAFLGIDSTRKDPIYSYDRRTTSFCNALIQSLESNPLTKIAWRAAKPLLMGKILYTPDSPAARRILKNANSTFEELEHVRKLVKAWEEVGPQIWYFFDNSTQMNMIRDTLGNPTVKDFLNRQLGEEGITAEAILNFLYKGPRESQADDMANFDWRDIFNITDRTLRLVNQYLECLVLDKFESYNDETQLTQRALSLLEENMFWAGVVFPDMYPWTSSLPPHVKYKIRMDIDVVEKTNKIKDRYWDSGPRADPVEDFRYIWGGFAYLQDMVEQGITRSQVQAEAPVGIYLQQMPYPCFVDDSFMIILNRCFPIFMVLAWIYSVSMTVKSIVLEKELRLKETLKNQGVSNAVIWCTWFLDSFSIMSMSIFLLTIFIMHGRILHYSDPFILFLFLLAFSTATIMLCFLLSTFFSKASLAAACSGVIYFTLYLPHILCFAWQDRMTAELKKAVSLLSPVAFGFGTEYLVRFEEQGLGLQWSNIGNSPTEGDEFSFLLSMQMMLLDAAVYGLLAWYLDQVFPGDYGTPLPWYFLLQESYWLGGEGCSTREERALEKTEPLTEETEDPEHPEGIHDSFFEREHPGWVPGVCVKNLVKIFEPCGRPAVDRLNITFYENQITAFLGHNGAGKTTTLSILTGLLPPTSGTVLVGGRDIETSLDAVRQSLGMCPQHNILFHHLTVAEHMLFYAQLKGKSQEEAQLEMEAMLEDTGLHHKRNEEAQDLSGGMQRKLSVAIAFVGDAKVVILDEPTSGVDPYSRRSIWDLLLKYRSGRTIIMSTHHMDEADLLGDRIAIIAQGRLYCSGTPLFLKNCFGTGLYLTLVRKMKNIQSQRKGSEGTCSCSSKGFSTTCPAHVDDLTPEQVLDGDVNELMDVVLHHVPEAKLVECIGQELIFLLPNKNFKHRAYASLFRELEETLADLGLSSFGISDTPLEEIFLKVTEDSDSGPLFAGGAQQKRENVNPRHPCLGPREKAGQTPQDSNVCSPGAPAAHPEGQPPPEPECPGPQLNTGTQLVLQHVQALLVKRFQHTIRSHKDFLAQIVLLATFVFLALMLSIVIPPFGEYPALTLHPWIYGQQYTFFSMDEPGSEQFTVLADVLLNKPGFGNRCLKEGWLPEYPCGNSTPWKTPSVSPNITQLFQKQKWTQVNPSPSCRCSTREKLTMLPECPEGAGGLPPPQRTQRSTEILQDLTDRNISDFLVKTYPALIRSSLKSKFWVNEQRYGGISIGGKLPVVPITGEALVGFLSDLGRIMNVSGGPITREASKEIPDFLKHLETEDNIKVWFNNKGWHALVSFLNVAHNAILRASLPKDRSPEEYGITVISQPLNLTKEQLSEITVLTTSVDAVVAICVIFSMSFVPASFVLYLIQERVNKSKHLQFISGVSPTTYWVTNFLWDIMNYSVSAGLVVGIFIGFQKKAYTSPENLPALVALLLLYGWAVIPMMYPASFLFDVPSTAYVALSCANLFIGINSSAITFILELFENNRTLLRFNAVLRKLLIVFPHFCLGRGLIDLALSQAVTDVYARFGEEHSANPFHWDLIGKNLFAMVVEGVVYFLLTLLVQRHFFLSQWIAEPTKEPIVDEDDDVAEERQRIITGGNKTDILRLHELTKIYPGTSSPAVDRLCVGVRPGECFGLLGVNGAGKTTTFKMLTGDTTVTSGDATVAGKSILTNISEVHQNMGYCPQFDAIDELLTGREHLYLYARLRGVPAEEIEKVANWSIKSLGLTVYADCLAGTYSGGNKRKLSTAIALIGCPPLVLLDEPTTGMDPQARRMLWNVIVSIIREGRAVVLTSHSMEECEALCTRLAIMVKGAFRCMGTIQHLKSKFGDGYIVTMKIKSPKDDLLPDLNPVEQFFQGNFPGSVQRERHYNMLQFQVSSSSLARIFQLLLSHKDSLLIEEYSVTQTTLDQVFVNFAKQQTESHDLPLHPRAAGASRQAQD
Experiment: A4 correction dose-response assay: ABCA4 P1380L HiBit protein expression
Format: cell-based
Details: HEK-293 cells stably expressing HiBit-tagged ABCA4 P1380L; 24 h treatment; top concentration 30 μM; read-out: ABCA4 P1380L EC50, Emax
pEC50: −log10 of the molar value.

Study these solved cases before continuing.
INSERT INTO measurements (compound, experimental_result) VALUES
  ('Cc1cc(C)c(Oc2nc(-c3cncc(C#N)c3)c(O)cc2NS(C)(=O)=O)c(C)n1 [Compound I-327]', '> 6.00'),
  ('Cc1cc(C(F)(F)F)nc(C2CC2)c1Oc1nc(-c2cncc(C#N)c2)ccc1S(=N)(=O)c1ccccn1 (stereo not shown) [Compound I-302]', '< 4.60'),
  ('Cc1cc(C(F)F)cc(C2CC2)c1Oc1nc(-c2cncc(C#N)c2)ccc1S(=N)(=O)C1CC1 (stereo not shown) [Compound I-319]', '< 4.60'),
  ('CNS(=O)(=O)c1cnc(-c2cncc(Cl)c2)cc1Oc1c(C)cc(C)cc1C [Compound I-84]', '> 4.60'),
  ('Cc1cc(C)c(Oc2nc(-c3cncc(Cl)c3)ccc2S(=O)(=O)NCc2cc(C(F)(F)F)ccn2)c(C)c1 [Compound I-87]', '< 4.60'),
  ('CNC(=O)N1CCN(c2ccc(NS(C)(=O)=O)c(Oc3c(C)cc(C)cc3C)n2)CC1 [Compound I-27]', '5.00 to 6.00');

Switching to the query record.
## Task Entry under review: Cc1cc(C)c(Oc2nc(-c3cc(Cl)cnc3C)ccc2NS(C)(=O)=O)c(C)n1 [Compound I-282] . Reported pEC50?
## Result < 4.60

* * *

Biological target: ABCB4 WT (Homo sapiens, UniProt P21439)
Sequence (P21439 whole entry): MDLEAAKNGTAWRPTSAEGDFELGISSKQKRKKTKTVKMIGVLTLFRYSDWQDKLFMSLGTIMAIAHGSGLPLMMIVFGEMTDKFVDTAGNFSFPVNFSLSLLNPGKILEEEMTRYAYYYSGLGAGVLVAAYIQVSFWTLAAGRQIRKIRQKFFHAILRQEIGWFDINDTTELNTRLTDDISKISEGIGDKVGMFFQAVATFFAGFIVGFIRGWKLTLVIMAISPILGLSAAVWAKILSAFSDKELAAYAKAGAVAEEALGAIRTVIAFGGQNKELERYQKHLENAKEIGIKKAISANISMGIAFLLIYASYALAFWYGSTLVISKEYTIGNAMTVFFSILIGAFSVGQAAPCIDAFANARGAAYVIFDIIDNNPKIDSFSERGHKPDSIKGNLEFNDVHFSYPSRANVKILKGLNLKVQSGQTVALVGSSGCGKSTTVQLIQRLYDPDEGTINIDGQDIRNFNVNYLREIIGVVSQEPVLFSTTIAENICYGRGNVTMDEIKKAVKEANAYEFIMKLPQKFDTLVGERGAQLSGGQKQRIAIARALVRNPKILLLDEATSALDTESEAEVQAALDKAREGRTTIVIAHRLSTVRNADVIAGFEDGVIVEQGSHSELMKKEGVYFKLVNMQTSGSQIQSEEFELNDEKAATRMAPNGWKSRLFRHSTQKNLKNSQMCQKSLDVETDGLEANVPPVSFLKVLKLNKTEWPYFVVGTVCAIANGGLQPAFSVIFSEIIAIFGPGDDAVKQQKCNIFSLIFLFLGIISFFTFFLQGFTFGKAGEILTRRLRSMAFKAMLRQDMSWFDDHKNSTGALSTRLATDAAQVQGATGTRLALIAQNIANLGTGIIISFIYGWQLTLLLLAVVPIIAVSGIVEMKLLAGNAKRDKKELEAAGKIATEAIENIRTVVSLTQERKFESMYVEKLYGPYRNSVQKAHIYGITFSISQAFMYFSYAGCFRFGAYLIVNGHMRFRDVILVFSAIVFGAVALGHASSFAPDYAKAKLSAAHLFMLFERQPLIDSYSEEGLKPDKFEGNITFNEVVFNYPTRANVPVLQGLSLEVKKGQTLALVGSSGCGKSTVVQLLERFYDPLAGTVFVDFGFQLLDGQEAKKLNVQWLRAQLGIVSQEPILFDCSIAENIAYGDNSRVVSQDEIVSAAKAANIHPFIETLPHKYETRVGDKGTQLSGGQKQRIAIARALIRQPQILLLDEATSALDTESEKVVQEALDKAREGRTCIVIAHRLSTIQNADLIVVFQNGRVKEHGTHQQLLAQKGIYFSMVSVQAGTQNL
Experiment: ABCB4 WT assay: HiBit protein expression
Settings: HEK-293 cells stably expressing HiBit-tagged ABCB4 WT; 24 h treatment; top concentration 30 μM; read-out: ABCB4 WT EC50, Emax
Parameter EC50: see the listing below.

Example entries and their recorded answers appear below.
INSERT INTO measurements (molecule, experimental_result) VALUES
  ('Cc1nc(C(F)(F)F)cc(C2CC2)c1Oc1nc(-c2cncc(C#N)c2)ccc1NS(C)(=O)=O', '< 1 µM'),
  ('Cc1cc(C)c(Oc2nc(-c3cncc(Cl)c3)ccc2S(=O)(=O)NC(c2ccccn2)C(F)(F)F)c(C)c1 (single isomer, unassigned) [Compound I-80]', '≥ 25 µM'),
  ('Cc1nc(C2COC2)nc(C)c1Oc1nc(-c2cncc(C#N)c2)ccc1NS(C)(=O)=O', '≥ 25 µM'),
  ('Cc1nc(C)c(Oc2nc(-c3cncc(Cl)c3)ccc2NS(C)(=O)=O)c(C2CC2)n1', '1 to 10 µM'),
  ('Cc1nc(C)c(C(F)(F)F)cc1Oc1nc(-c2cncc(C#N)c2)ccc1NS(C)(=O)=O', '< 25 µM'),
  ('Cc1cc(C)c(Oc2nc(-c3cccc(Cl)c3)ccc2S(=O)(=O)NC2CCOC2)c(C)c1 (stereo not drawn)', '≥ 25 µM'),
  ('Cc1cc(C)c(Oc2nc(-c3ccc(C#N)nc3)ccc2NS(C)(=O)=O)c(C)n1', '< 1 µM'),
  ('Cc1cc(C)c(Oc2nc(-c3cncc(Cl)c3)ccc2N(C)S(=O)(=O)c2cnn(C)c2)c(C)c1', '≥ 25 µM');

## Task Request the reported EC50 associated with Cc1nc(Oc2nc(-c3cncc(C#N)c3)ccc2NS(C)(=O)=O)c(C)s1
## Result ≥ 25 µM

## Task Also Cc1cc(C)c(Oc2nc(-c3cncc(C#N)c3)ccc2NS(C)(=O)=O)c(C2CC2)n1 , if possible.
## Result < 1 µM

## Task Quick one: CC(=O)NC1CN(c2ccc(NS(=O)(=O)c3cccnc3)c(Oc3c(C)cc(C)cc3C3CC3)n2)C1
## Result 1 to 10 µM

## Task And for CCS(=O)(=O)Nc1ccc(-c2cncc(C#N)c2)nc1Oc1c(C)cc(C)nc1C ?
## Result < 1 µM

## Task Try this molecule too: Cc1cc(C)c(Oc2nc(-c3cncc(Cl)c3)cnc2S(N)(=O)=O)c(C)c1Cl
## Result 1 to 10 µM

## Task Consider next the molecule Cc1cc(C)c(Oc2nc(-c3cncc(Cl)c3)ccc2S(C)(=N)=O)c(C)c1 (stereo not drawn) in the same way.
## Result < 1 µM

## Task Now give it for COC1CC(NS(=O)(=O)c2ccc(-c3cncc(Cl)c3)nc2Oc2c(C)cc(C)cc2C)C1 (stereo not drawn) too.
## Result < 25 µM
